protocol_text: Acute toxicity (oral, 14 days)
Type: in vivo
reported_conditions: mouse, in vivo, po, 5000 mg/kg, male, 5000 mg/kg oral; read-out: Lethality (%)
reported_property: mortality at 336 h (%)
Reply with just the number (in %).

Input line: // lookup mortality at 336 h for CCCC(=O)c1cnc2c(OC)nccc2c1N[C@H](C)c1ccccc1
Output line: 100

---

protocol_text: Acute toxicity (oral, 14 days)
Format: in vivo
reported_conditions: mouse, in vivo, po, female, 14 days
Protocol: A median lethal dose (LD50) an index of acute toxicity was measured and is Table 4
reported_property: LD50 at 336 h (mg/kg)
Reply with just the number (in mg/kg).

Input line: // lookup LD50 at 336 h for CCCC(=O)c1cnc2c(OC)nccc2c1N[C@H](C)c1ccccc1
Output line: 1130

---

protocol_text: Acute toxicity (oral, 14 days)
Format: in vivo
reported_conditions: mouse, in vivo, po, male, 14 days
reported_property: LD50 at 336 h (mg/kg)
Reply with just the number (in mg/kg).

Input line: // lookup LD50 at 336 h for CCCC(=O)c1cnc2c(OC)nccc2c1N[C@H](C)c1ccccc1
Output line: 2340

---

protocol_text: Acute toxicity (oral, 14 days)
Assay type: in vivo
reported_conditions: mouse, in vivo, po, 1000 mg/kg, female, 1000 mg/kg oral; read-out: Lethality (%)
reported_property: mortality at 336 h (%)
Reply with just the number (in %).

Input line: // lookup mortality at 336 h for CCCC(=O)c1cnc2c(OC)nccc2c1N[C@H](C)c1ccccc1 [Example 21]
Output line: 17

---

protocol_text: Acute toxicity (oral, 14 days)
Type: in vivo
reported_conditions: mouse, in vivo, po, 5000 mg/kg, female, 5000 mg/kg oral; read-out: Lethality (%)
reported_property: mortality at 336 h (%)
Reply with just the number (in %).

Input line: // lookup mortality at 336 h for CCCC(=O)c1cnc2c(OC)nccc2c1N[C@H](C)c1ccccc1
Output line: 100

---

protocol_text: Acute toxicity (oral, 14 days)
Type: in vivo
reported_conditions: mouse, in vivo, po, 40 mg/kg, female, 40 mg/kg oral; read-out: Lethality (%)
reported_property: mortality at 336 h (%)
Reply with just the number (in %).

Input line: // lookup mortality at 336 h for CCCC(=O)c1cnc2c(OC)nccc2c1N[C@H](C)c1ccccc1
Output line: 0

---

protocol_text: Acute toxicity (oral, 14 days)
Assay type: in vivo
reported_conditions: mouse, in vivo, po, 200 mg/kg, female, 200 mg/kg oral; read-out: Lethality (%)
Description: A median lethal dose (LD50) an index of acute toxicity was measured and is Table 4
reported_property: mortality at 336 h (%)
Reply with just the number (in %).

Input line: // lookup mortality at 336 h for CCCC(=O)c1cnc2c(OC)nccc2c1N[C@H](C)c1ccccc1
Output line: 0

---

system_under_test: H^+ /K^+ ATPase (Oryctolagus cuniculus)
Construct: from tissue; host or cells: rabbit gastric mucosa, membrane vesicles (differential and Ficoll density gradient centrifugation)
protocol_text: Inhibition of H^+ /K^+ ATPase (rabbit gastric mucosa vesicles)
Assay type: biochemical
reported_conditions: preincubation 30 min, 37° C., pH 7.4
For each entry below, report its pIC50 value.
Kindly note that pIC50 refers to -log10 of the concentration in mol/L and answer with the value alone.

Input line: // lookup pIC50 for CCCC(=O)c1cnc2c(OC)nccc2c1N[C@H](C)c1ccccc1
Output line: 4.34

Input line: // lookup pIC50 for CCCC(=O)c1cnc2c(OC)nccc2c1NCCCCc1ccccc1
Output line: 4.57

Input line: // lookup pIC50 for CCCC(=O)c1cnc2c(OCC)nccc2c1N[C@H](C)c1ccccc1
Output line: 4.55

Input line: // lookup pIC50 for CCCCc1ccc(Nc2c(C(=O)CCC)cnc3c(OCC)nccc23)cc1
Output line: 4.69

Input line: // lookup pIC50 for CCCC(=O)c1cnc2c(OC)nccc2c1Nc1ccc2c(c1)CCC2
Output line: 4.83

Input line: // lookup pIC50 for CCOC(=O)c1cnc2c(OC)nccc2c1Nc1ccc(F)cc1
Output line: 4.50

Input line: // lookup pIC50 for CCCC(=O)c1cnc2c(OC)nccc2c1NC1CCCc2ccccc21 (stereo not shown)
Output line: 4.12

Input line: // lookup pIC50 for CCCC(=O)c1cnc2c(OCC)nccc2c1Nc1ccccc1SC
Output line: 4.63

Input line: // lookup pIC50 for CCCC(=O)c1cnc2c(OCC)nccc2c1NC1CCCc2ccccc21 (stereo not shown)
Output line: 4.83

Input line: // lookup pIC50 for CCCC(=O)c1cnc2c(OC(C)C)nccc2c1Nc1ccccc1C
Output line: 4.74

---

Tested on: indomethacin-induced lesions
protocol_text: Inhibition of indomethacin-induced lesions
Format: in vivo, male Sprague-Dawley rats
reported_conditions: Rattus norvegicus; oral, before indomethacin 35 mg/kg s.c.; read-out: Anti-ulcer activity (ED50), Indomethacin
Protocol: 3) Inhibition of indomethacin-induced lesions Inhibitory activities of the inventive compounds on the indomethacin-induced lesions were measured by using male Sprague-Dawley rats. Thus, rats were starved for 48 hours and prohibited from being supplied with water for 2 hours, and 35 mg/kg of indomethacin (Sigma Co.) as a causative of gastric lesions was subcutaneously administered. […]
For each entry below, report its ED50 value.

Input line: // lookup ED50 for CCCC(=O)c1cnc2c(OC)nccc2c1N[C@H](C)c1ccccc1 [Example 21]
Output line: 2.1 mg/kg

Input line: // lookup ED50 for CCCC(=O)c1cnc2c(OCC)nccc2c1Nc1ccccc1SC [Example 34]
Output line: 4.9 mg/kg

Input line: // lookup ED50 for COc1ccc2[nH]c([S+]([O-])Cc3ncc(C)c(OC)c3C)nc2c1 (stereo not shown) [Omeprazole, reference compound]
Output line: 1.2 mg/kg

Input line: // lookup ED50 for CCOC(=O)c1cnc2c(OC)nccc2c1N[C@@H](C)c1ccccc1 [Example 15]
Output line: 2.1 mg/kg

---

system_under_test: H^+ /K^+ ATPase (Oryctolagus cuniculus)
Construct: from tissue; host or cells: rabbit gastric mucosa, membrane vesicles (differential and Ficoll density gradient centrifugation)
protocol_text: Inhibition of H^+ /K^+ ATPase (rabbit gastric mucosa vesicles)
Format: biochemical
reported_conditions: control
reported_property: IC50 (µM)
Reply with just the number (in µM).

Input line: Record lookup: for H^+ /K^+ ATPase (Oryctolagus cuniculus), what IC50 belongs to COc1ccc2[nH]c([S+]([O-])Cc3ncc(C)c(OC)c3C)nc2c1 (stereo not shown) [Omeprazole, reference compound] ?
Output line: 57.5

---

protocol_text: Acute toxicity (oral, 14 days)
Type: in vivo
reported_conditions: mouse, in vivo, po, 1000 mg/kg, male, 1000 mg/kg oral; read-out: Lethality (%)
reported_property: mortality at 336 h (%)
Reply with just the number (in %).

Input line: // lookup mortality at 336 h for CCCC(=O)c1cnc2c(OC)nccc2c1N[C@H](C)c1ccccc1
Output line: 0

---

system_under_test: H^+ /K^+ ATPase (Oryctolagus cuniculus, UniProt P27112)
Construct: from tissue; host or cells: rabbit gastric mucosa, membrane vesicles (differential and Ficoll density gradient centrifugation)
Sequence (P27112 2-1035 limits assumed): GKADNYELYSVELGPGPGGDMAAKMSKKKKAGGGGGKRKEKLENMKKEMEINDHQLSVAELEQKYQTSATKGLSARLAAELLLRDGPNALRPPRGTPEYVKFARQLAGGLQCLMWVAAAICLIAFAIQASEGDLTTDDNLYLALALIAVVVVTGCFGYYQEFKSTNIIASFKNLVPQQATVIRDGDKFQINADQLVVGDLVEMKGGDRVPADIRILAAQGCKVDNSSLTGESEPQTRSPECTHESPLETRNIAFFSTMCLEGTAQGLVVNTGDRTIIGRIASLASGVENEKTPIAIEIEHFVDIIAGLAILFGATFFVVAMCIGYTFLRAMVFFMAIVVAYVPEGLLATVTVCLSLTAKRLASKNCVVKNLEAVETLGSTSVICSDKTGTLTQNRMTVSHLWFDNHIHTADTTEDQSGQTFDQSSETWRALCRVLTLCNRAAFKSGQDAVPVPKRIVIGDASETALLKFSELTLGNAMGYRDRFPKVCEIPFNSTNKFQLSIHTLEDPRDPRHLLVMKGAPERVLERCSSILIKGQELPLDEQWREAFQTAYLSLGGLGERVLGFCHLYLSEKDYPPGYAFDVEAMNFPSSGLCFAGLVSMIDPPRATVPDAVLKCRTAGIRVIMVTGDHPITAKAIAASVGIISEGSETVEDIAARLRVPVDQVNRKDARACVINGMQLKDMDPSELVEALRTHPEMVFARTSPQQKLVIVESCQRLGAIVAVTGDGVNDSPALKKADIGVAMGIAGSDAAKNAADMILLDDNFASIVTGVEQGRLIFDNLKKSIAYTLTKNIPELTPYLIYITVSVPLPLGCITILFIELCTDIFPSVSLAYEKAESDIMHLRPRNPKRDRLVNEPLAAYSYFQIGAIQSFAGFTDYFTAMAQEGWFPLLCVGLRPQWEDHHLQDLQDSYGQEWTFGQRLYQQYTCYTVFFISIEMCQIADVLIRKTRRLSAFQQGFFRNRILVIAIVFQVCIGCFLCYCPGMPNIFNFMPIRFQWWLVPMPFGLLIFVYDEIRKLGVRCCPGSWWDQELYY
Sequence (P18597 whole entry partner): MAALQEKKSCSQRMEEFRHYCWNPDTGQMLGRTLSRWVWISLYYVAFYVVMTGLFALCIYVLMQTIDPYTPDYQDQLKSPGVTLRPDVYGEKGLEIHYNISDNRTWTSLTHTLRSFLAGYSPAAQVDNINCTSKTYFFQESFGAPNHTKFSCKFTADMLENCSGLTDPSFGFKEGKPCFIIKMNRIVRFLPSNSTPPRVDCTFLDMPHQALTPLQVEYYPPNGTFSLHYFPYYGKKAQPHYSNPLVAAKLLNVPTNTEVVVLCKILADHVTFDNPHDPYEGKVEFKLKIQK
protocol_text: Inhibition of H^+ /K^+ ATPase (rabbit gastric mucosa vesicles)
Assay type: biochemical
reported_conditions: preincubation 30 min, 37° C., pH 7.4
reported_property: IC50 (µM)
Reply with just the number (in µM).

Input line: // lookup IC50 for CCCC(=O)c1cnc2c(OC(C)C)nccc2c1Nc1ccccc1SC [Example 44]
Output line: 11.4

Input line: // lookup IC50 for CCCC(=O)c1cnc2c(OC(C)C)nccc2c1Nc1ccccc1C(F)(F)F [Example 45]
Output line: 39.3

Input line: // lookup IC50 for CCCCc1ccc(Nc2c(C(=O)OCC)cnc3c(OC)nccc23)cc1 [Example 13]
Output line: 25.1

Input line: // lookup IC50 for CCCC(=O)c1cnc2c(OCC)nccc2c1NCCCCc1ccccc1 [Example 41]
Output line: 12.6

Input line: // lookup IC50 for CCOC(=O)c1cnc2c(N3CCOCC3)nccc2c1Nc1cccc(C(F)(F)F)c1 [Example 55]
Output line: 16.8
